The measurements presented in this section are drawn from patent US5859007A.

- Tested on: isolated guinea pig gallbladder
- Protocol details: Functional activity in isolated guinea pig gallbladder preparation
- Assay type: cell-based
- Particulars: Cavia porcellus, 3 × 10^-5 M test compound; expressed as % CCK-induced maximal response; read-out: % Contraction (3 × 10^-5 M)
- Procedure: 3. GUINEA PIG GALL BLADDER ASSAY Gallbladders are removed from guinea pigs sacrificed by cervical dislocation. The isolated gallbladders are cleaned of adherent connective tissue and cut into two rings from each animal (2-4 mm in length). The rings are subsequently suspended in organ chambers containing a physiological salt solution (118.4 mM NaCl, 4.7 mM KCl, 1.2 mM MgSO4, 2.5 mM CaCl2, 1.2 mM KH2 […], 25 mM NaHCO3, 11.1 mM dextrose). […] Responses are then recorded on a polygraph (Grass, Model 7E). […]
Readout kind: activation at 30 µM

# Compound, Result
rows = [
    ("COc1ccc(N(C(=O)CN2C(=O)C(Cc3nn(C)c4ccccc34)C(=O)N(c3ccccc3)c3ccccc32)C(C)C)cc1 (stereo not drawn) [Example 44]", "83%"),
    ("COc1ccc(N(C(=O)CN2C(=O)C(Cc3nccn3-c3ccccc3)C(=O)N(c3ccccc3)c3ccccc32)C(C)C)cc1 (stereo not drawn) [Example 46]", "6%"),
    ("COc1ccc(N(C(=O)CN2C(=O)C(COCc3ccccc3)C(=O)N(c3ccccc3)c3ccccc32)C(C)C)cc1 (stereo not drawn) [Example 82]", "89%"),
]

###

- Tested on: isolated guinea pig gallbladder
- Protocol details: Functional activity in isolated guinea pig gallbladder preparation
- Format: cell-based
- Particulars: Cavia porcellus, 1 × 10^-6 M test compound; expressed as % CCK-induced maximal response; read-out: %Contraction (1 × 10^-6 M)
Cut-off 60% on activation at 1 µM, inclusive. At or above means Criterion met; below means Criterion not met.

# Molecule, Assigned category
data = [
    ("COCC1(CC(=O)Nc2ccccc2)C(=O)N(CC(=O)N(c2ccc(OC)cc2)C(C)C)c2ccccc2N(c2ccccc2)C1=O (stereo not drawn)", "Criterion met"),
    ("COc1ccc(N(C(=O)CN2C(=O)C(CC(=O)O)(CC(=O)Nc3ccccc3)C(=O)N(c3ccccc3)c3ccccc32)C(C)C)cc1 (stereo not drawn)", "Criterion met"),
    ("COc1ccc(N(C(=O)CN2C(=O)C(Cc3cc(C)nn3Cc3ccccc3)C(=O)N(c3ccccc3)c3ccccc32)C(C)C)cc1 (stereo not drawn)", "Criterion met"),
    ("CC(C)N(C(=O)CN1C(=O)C(C)(CC(=O)Nc2ccccc2N)C(=O)N(c2ccccc2)c2ccccc21)c1ccccc1 (stereo not drawn)", "Criterion not met"),
    ("COc1ccc(N(C(=O)CN2C(=O)C(Cc3n[nH]c4ncccc34)C(=O)N(c3ccccc3)c3ccccc32)C(C)C)cc1 (stereo not drawn)", "Criterion met"),
    ("COc1ccc(N(C(=O)CN2C(=O)C(Cn3cnc4ccccc43)C(=O)N(c3ccccc3)c3ccccc32)C(C)C)cc1 (stereo not drawn)", "Criterion met"),
]

###

- System: isolated guinea pig gallbladder
- Protocol details: Functional activity in isolated guinea pig gallbladder preparation
- Type: cell-based
- Particulars: Cavia porcellus, 1 × 10^-6 M test compound; expressed as % CCK-induced maximal response; read-out: %Contraction (1 × 10^-6 M)

# Compound, activation at 1 µM / %
measured = [
    ("COc1ccc(N(C(=O)CN2C(=O)C(Cc3n[nH]c4ccccc34)C(=O)N(c3ccsc3)c3ccccc32)C(C)C)cc1 (stereo not drawn)", 80),
    ("COc1ccc(N(C(=O)CN2C(=O)C(C)(Cc3n[nH]c4ccccc34)C(=O)N(c3cccnc3)c3ccccc32)C(C)C)cc1 (single isomer, unassigned) [Example 75]", 102),
    ("CC(C)N(C(=O)CN1C(=O)C(Cc2n[nH]c3cc(F)ccc23)C(=O)N(c2ccccc2)c2ccccc21)c1ccc(F)cc1 (stereo not drawn)", 77),
    ("CC(C)N(C(=O)CN1C(=O)C(C)(CCNc2ccccc2)C(=O)N(c2ccccc2)c2ccccc21)c1ccccc1 (stereo not drawn)", 7),
    ("CC(C)N(C(=O)CN1C(=O)C(C)(CCCC(=O)Nc2ccccc2)C(=O)N(c2ccccc2)c2ccccc21)c1ccccc1 (stereo not drawn)", 54),
    ("CC(C)N(C(=O)CN1C(=O)C(C)(CC(=O)Nc2cccc(C(=O)O)c2)C(=O)N(c2ccccc2)c2ccccc21)c1ccccc1 (stereo not drawn)", 75),
]
